target: HLA-A*0201 (human); experiment: competitive inhibition, purified HLA-A2.1, standard reference peptide
EXPERIMENTAL_ENDPOINT: IC50 (nM)

{"BINDER": "FLPSDYFPSV (modifications not checked) [HBV core 18-27 F6>Y analog peptide]", "U": "nM", "ENDPOINT_VALUE": 5}

Data provenance is patent US20070055049A1.
